- System: HCV Con1 subgenomic replicon in Huh-7 cells (NK/luc-ubi-neo)
- assay-comment: HCV replicon assay (luciferase reporter)
- Assay type: cell-based
- assay-conditions: anti-HCV activity, class symbols; read-out: Range of EC50 in HCV replicon assay
pEC50: −log10 of the molar value.
experimental-endpoint: pEC50

Solved entries:
N#Cc1c(Nc2ccc(Cl)c(C(F)(F)F)c2)s[nH]c1=O [drawing 430]: 5.00 to 6.00
N#Cc1c(NCCc2cccs2)s[nH]c1=O: < 4.30
N#Cc1c(Nc2ccc(C(=O)O)cc2)s[nH]c1=O: < 4.30
N#Cc1c(Nc2ccc(Cl)cc2Cl)s[nH]c1=O: 4.30 to 5.00

Measured pEC50 of N#Cc1c(Nc2ccc(I)c(Cl)c2)s[nH]c1=O : > 6.00

Measured pEC50 of CC(C)c1cccc(C(C)C)c1Nc1s[nH]c(=O)c1C#N : 4.30 to 5.00

Measured pEC50 of N#Cc1c(Nc2cc(C(F)(F)F)cc(C(F)(F)F)c2)s[nH]c1=O : 5.00 to 6.00

Measured pEC50 of COC(=O)c1cccc(Nc2s[nH]c(=O)c2C#N)c1 : < 4.30

Measured pEC50 of N#Cc1c(Nc2ccccc2C(F)(F)F)s[nH]c1=O : 4.30 to 5.00

Measured pEC50 of N#Cc1c(NCC2CCCO2)s[nH]c1=O (centres unmarked) : < 4.30

Measured pEC50 of N#Cc1c(NC23CC4CC(CC(C4)C2)C3)s[nH]c1=O : 5.00 to 6.00

Measured pEC50 of CCCC1CCC(c2ccc(Nc3s[nH]c(=O)c3C#N)cc2)CC1 (centres unmarked) : 5.00 to 6.00

====

- System: HCV Con1 subgenomic replicon in Huh-7 cells (NK/luc-ubi-neo)
- assay-comment: HCV replicon assay (luciferase reporter)
- Assay type: cell-based
- assay-conditions: anti-HCV activity, class symbols; read-out: Range of EC50 in HCV replicon assay
- Experimental: A human hepatoma cell line (Huh-7) containing replicating HCV Con1 subgenomic replicon with a luciferase reporter gene (luc-ubi-neo) was used to evaluate anti-HCV activity of the compounds. […] To evaluate the antiviral activity of compounds, serial dilutions were prepared with concentrations ranging from 0.14 to 300 μM. […] Cells were incubated with the compounds for 48 hours after which luciferase activity was measured.
experimental-endpoint: EC50

// EC50 (HCV Con1 subgenomic replicon in Huh-7 cells (NK/luc-ubi-neo)) for N#Cc1c(Nc2ccc(I)cc2Cl)s[nH]c1=O = 1 to 10 µM

====

- System: HCV Con1 subgenomic replicon in Huh-7 cells (NK/luc-ubi-neo)
- assay-comment: HCV replicon assay (luciferase reporter)
- Assay type: cell-based
- assay-conditions: anti-HCV activity, class symbols; read-out: Range of EC50 in HCV replicon assay
- Protocol: A human hepatoma cell line (Huh-7) containing replicating HCV Con1 subgenomic replicon with a luciferase reporter gene (luc-ubi-neo) was used to evaluate anti-HCV activity of the compounds. […] To evaluate the antiviral activity of compounds, serial dilutions were prepared with concentrations ranging from 0.14 to 300 μM. […] Cells were incubated with the compounds for 48 hours after which luciferase activity was measured.
experimental-endpoint: EC50

N#Cc1c(NCCc2ccc(O)cc2)s[nH]c1=O: > 50 µM
N#Cc1c(Nc2ccc(Cl)cn2)s[nH]c1=O: 10 to 50 µM
N#Cc1c(NCC2CCCCC2)s[nH]c1=O: 1 to 10 µM
N#Cc1c(Nc2ccc(Br)c(Cl)c2)s[nH]c1=O: < 1 µM

Measured EC50 of N#Cc1c(Nc2ccc(Cl)c(Cl)c2)s[nH]c1=O : < 1 µM

Measured EC50 of N#Cc1c(Nc2ccc(C(=O)c3ccccc3)cc2)s[nH]c1=O : 10 to 50 µM

Measured EC50 of N#Cc1c(Nc2ccc(I)cc2)s[nH]c1=O : 1 to 10 µM

Measured EC50 of N#Cc1c(Nc2ccccc2F)s[nH]c1=O : 10 to 50 µM

Measured EC50 of N#Cc1c(Nc2ccc(Cc3ccccc3)cc2)s[nH]c1=O : > 50 µM

Measured EC50 of CN(C)c1ccc(Nc2s[nH]c(=O)c2C#N)c2ccccc12 : > 50 µM

Measured EC50 of N#Cc1c(Nc2ccc(S(=O)(=O)Nc3ccccc3)cc2)s[nH]c1=O : > 50 µM

Measured EC50 of N#Cc1c(Nc2ccccc2Cl)s[nH]c1=O : 10 to 50 µM

Measured EC50 of N#Cc1c(NC2CCc3ccccc32)s[nH]c1=O (stereo not shown) : 1 to 10 µM

Measured EC50 of N#Cc1c(Nc2cc(Cl)nc(Cl)c2)s[nH]c1=O : 1 to 10 µM

====

- Tested on: HCV Con1 subgenomic replicon in Huh-7 cells (NK/luc-ubi-neo)
- assay-comment: HCV replicon assay (luciferase reporter)
- Assay type: cell-based
- assay-conditions: anti-HCV activity, class symbols; read-out: Range of EC50 in HCV replicon assay
experimental-endpoint: EC50

CC(C)c1ccccc1Nc1s[nH]c(=O)c1C#N: > 50 µM
N#Cc1c(Nc2ccc(Br)nc2)s[nH]c1=O: 10 to 50 µM
CN(C)c1ccc2ccccc2c1Nc1s[nH]c(=O)c1C#N: > 50 µM

Measured EC50 of N#Cc1c(Nc2cccc(Cl)c2Cl)s[nH]c1=O : > 50 µM

Measured EC50 of N#Cc1c(Nc2ccc(F)cc2)s[nH]c1=O : 10 to 50 µM
